experiment: gradient 5% acetonitrile 3 min, to 50% in 2 min, to 85% in 15 min, held 3 min, 100 µL/min; details: column: Zorbax Extend-C18 2.1 x 50 mm; eluents: water / acetonitrile, 0.1% formic acid
Measured RP-LC retention time of individual entries
Lab book: enter the figure in s, no units written.

Some compounds with recorded RP-LC retention time:
Sure, the documented RP-LC retention time for COc1ccccc1NC(=O)Nc1c(-c2cccc(C)c2)nc2ccccn12 is 700

Sure, the documented RP-LC retention time for O=c1ccc(S(=O)(=O)N2CCCC2)cn1Cc1ccc(F)cc1 is 820

Others:
Sure, the documented RP-LC retention time for Cc1nc2cccnc2n1C1CCN(C(=O)C2CCCCC2)C1 (stereo unspecified) is 591

Sure, the documented RP-LC retention time for NCC(O)COc1cccc2ccccc12 (stereo unspecified) is 679

###

experiment: gradient 5% acetonitrile 3 min, to 50% in 2 min, to 85% in 15 min, held 3 min, 100 µL/min; details: column: Zorbax Extend-C18 2.1 x 50 mm; eluents: water / acetonitrile, 0.1% formic acid
readout.kind: RP-LC retention time
The answer should read as a number with its unit following.

Sure, the documented RP-LC retention time for O=C(Cn1ccc2ccc(N3CCOCC3)nc21)NCc1ccco1 is 773 s

###

Measured RP-LC retention time of individual entries
assay: gradient 5% acetonitrile 3 min, to 50% in 2 min, to 85% in 15 min, held 3 min, 100 µL/min; settings: column: Zorbax Extend-C18 2.1 x 50 mm; eluents: water / acetonitrile, 0.1% formic acid
Lab book: enter the figure in s, no units written.

Some molecules with recorded RP-LC retention time:
Sure, the documented RP-LC retention time for CCOC(=O)c1noc2ncnc(N3CCN(c4ccccc4OC)CC3)c12 is 970

Sure, the documented RP-LC retention time for COc1ccc(C(C)NC(=O)c2cc(NC(C)=O)cc3nc(C)ccc23)cc1OC (stereo not given) is 599

Sure, the documented RP-LC retention time for Cc1nn(-c2ccccc2)c(C)c1S(=O)(=O)N1CCC(C(=O)N2CCc3ccccc32)CC1 is 1020

Sure, the documented RP-LC retention time for CCn1c(=O)sc2cc(S(=O)(=O)N3CCC(C(=O)Nc4ccc(C)c(F)c4)CC3)ccc21 is 979

Sure, the documented RP-LC retention time for O=C(O)c1cc(-c2ccncc2)nc2ccccc12 is 572

Others:
Sure, the documented RP-LC retention time for COc1ccc(NC(=O)c2ccc(-c3cncnc3)nc2)cc1Cl is 735

Sure, the documented RP-LC retention time for COc1ccccc1Nc1nc(-c2ccccc2)cs1 is 1150

Sure, the documented RP-LC retention time for Cc1noc(-c2ccc(OC3CN(C(=O)Cc4ccccc4)C3)cc2)n1 is 924

Sure, the documented RP-LC retention time for CCCNC(=O)C1CCCN(c2nc3ncn(CC(=O)Nc4ccccc4)c(=O)c3s2)C1 (stereo not given) is 683

Sure, the documented RP-LC retention time for COC(=O)c1ccc(NC(=O)NCc2noc3ccc(C)cc23)cc1 is 868

###

experiment: gradient 5% acetonitrile 3 min, to 50% in 2 min, to 85% in 15 min, held 3 min, 100 µL/min; settings: column: Zorbax Extend-C18 2.1 x 50 mm; eluents: water / acetonitrile, 0.1% formic acid
Assign true to entries whose RP-LC retention time meets or exceeds 800 s; assign false to the rest.

These recorded examples may help you get a feel for the data.
Hi team, for CS(=O)(=O)Oc1ccc(Br)c2cccnc12 , is the recorded RP-LC retention time at or above 800 s?
true

Hi team, for O=C(Cn1cnc2nc3c(cc2c1=O)CCCC3)NCCc1ccccc1 , is the recorded RP-LC retention time at or above 800 s?
false

Hi team, for O=C(O)Cc1sc(-c2ccccc2)nc1-c1ccc(Cl)cc1 , is the recorded RP-LC retention time at or above 800 s?
true

Hi team, for Cc1oc(-c2ccc(C(=O)NCCN(C)C)cc2)nc1CSc1ccccc1 , is the recorded RP-LC retention time at or above 800 s?
false

Hi team, for COCCNC(=O)c1nc(Nc2ccc(C)cc2)c2ccccc2n1 , is the recorded RP-LC retention time at or above 800 s?
false

Hi team, for CN1C(=O)NC2(CCN(C(=O)c3cccs3)CC2)C1=O , is the recorded RP-LC retention time at or above 800 s?
false

Hi team, for COc1ccc(CNC(=O)Cn2ncc3c(c2=O)N(C2CC2)C(=O)CS3)cc1 , is the recorded RP-LC retention time at or above 800 s?
false

Hi team, for Fc1cccc(Cl)c1C1SCc2nc3ccccc3n21 (stereo not given) , is the recorded RP-LC retention time at or above 800 s?
true

Hi team, for COc1ccc(C(CC(=O)NCCN2CCOCC2)N2Cc3ccccc3C2=O)cc1OC (stereo not given) , is the recorded RP-LC retention time at or above 800 s?
false

Hi team, for Cc1ccc2c(=O)c3c([nH]c2c1C)CCN(CC(=O)NC1CCCCC1)C3 , is the recorded RP-LC retention time at or above 800 s?
false

Others:
Hi team, for CCCCc1ccc(NC(=O)Cn2nc3cc(C)nc(-c4ccc(Cl)cc4)n3c2=O)cc1 , is the recorded RP-LC retention time at or above 800 s?
true

Hi team, for Oc1ccc(-c2nc3ncccn3c2Nc2ccc(Cl)cc2)cc1 , is the recorded RP-LC retention time at or above 800 s?
false

Hi team, for Cc1ccc(-c2noc(-c3cccc(S(=O)(=O)N4CCCCC4)c3)n2)cc1 , is the recorded RP-LC retention time at or above 800 s?
true

Hi team, for COc1ccccc1-c1cc(C(N)=O)c2cccc(C)c2n1 , is the recorded RP-LC retention time at or above 800 s?
true

Hi team, for CS(=O)(=O)N1CCC(OC2CCN(C(=O)Nc3cccc(F)c3)CC2)CC1 , is the recorded RP-LC retention time at or above 800 s?
false

Hi team, for COc1ccc(-c2csc(C)n2)cc1S(=O)(=O)N1CC=C(c2ccccc2)CC1 , is the recorded RP-LC retention time at or above 800 s?
true

###

experiment: gradient 5% acetonitrile 3 min, to 50% in 2 min, to 85% in 15 min, held 3 min, 100 µL/min; settings: column: Zorbax Extend-C18 2.1 x 50 mm; eluents: water / acetonitrile, 0.1% formic acid
Assign t to entries whose RP-LC retention time meets or exceeds 900 s; assign f to the rest.

Hi team, for Cc1c(CNCc2ccco2)c(C(=O)O)c(C)n1Cc1ccccc1Cl , is the recorded RP-LC retention time at or above 900 s?
f

Hi team, for Cc1ccc(C)c(NC(=O)N2CCCC2c2nncn2-c2ccccc2)c1 (centres undefined) , is the recorded RP-LC retention time at or above 900 s?
f

Hi team, for Cc1cc(N2CCN(C(=O)c3cccc(C(F)(F)F)c3)CC2)nc2nnc(C)n12 , is the recorded RP-LC retention time at or above 900 s?
f

Hi team, for Cc1ccc(-c2cc3c4nn(CC(=O)NC5CCCCC5)c(=O)n4ccn3n2)cc1C , is the recorded RP-LC retention time at or above 900 s?
t

Hi team, for O=C(Cc1ccccc1Br)NC1CCN(c2cc(-c3ccccc3)[nH]n2)C1 (centres undefined) , is the recorded RP-LC retention time at or above 900 s?
f

Hi team, for COc1ccc(C2CC(=O)N(c3cccc(Cl)c3)C(=O)C2)cc1 , is the recorded RP-LC retention time at or above 900 s?
t

We next turn to a different compound, shown below.
Hi team, for Cc1cccc(-c2nn3c(N(C)C)cc(C)nc3c2C)c1 , is the recorded RP-LC retention time at or above 900 s?
f

###

test: gradient 5% acetonitrile 3 min, to 50% in 2 min, to 85% in 15 min, held 3 min, 100 µL/min; conditions: column: Zorbax Extend-C18 2.1 x 50 mm; eluents: water / acetonitrile, 0.1% formic acid
Measured RP-LC retention time of individual entries
Lab book: enter the figure in s, no units written.

Sure, the documented RP-LC retention time for CC(NC(=O)C1=C2CCCN2c2ccccc2S1(=O)=O)c1ccccc1 (stereo not given) is 855

Sure, the documented RP-LC retention time for COc1ccc(C)cc1NC(=O)Cn1nc(N2CCCC2)c2ccccc2c1=O is 840

Sure, the documented RP-LC retention time for CCN(CC)S(=O)(=O)c1ccc2c(c1)CC(C(=O)NCCN1CCCCC1)N2C(C)=O (stereo not given) is 610

Sure, the documented RP-LC retention time for COc1ccc(NC(=O)Cn2c(=O)n(-c3ccc(F)cc3)c(=O)c3c2cc(C)n3C)cc1 is 812

Sure, the documented RP-LC retention time for CN1c2cc(F)ccc2C(=O)NC12CCN(C(=O)c1cccc(F)c1)CC2 is 769

Sure, the documented RP-LC retention time for O=C(Cc1ccsc1)N1CCCn2nc(-c3ccc(Cl)cc3)cc2C1 is 931

Now for another entry.
Sure, the documented RP-LC retention time for CCCCSc1ncnc2[nH]ncc12 is 919
